Cited source: PubChem BioAssay (NCI)

Tested on: MALME-3M melanoma
Experiment: NCI-60 one-dose screen, 48 h (100 = growth as untreated, 0 = no growth, -100 = all killed)
Details: 10 µM unless noted
Compounds without any hit were thinned out: in the full panel of roughly 83,000, 20% have a hit.
# if value of growth reaches 90%, tag satisfied; if it stays below, tag not satisfied

The following compounds have reported results that may help.
O=C(Nc1ccncc1)C(=O)c1cn(S(=O)(=O)c2ccc(Cl)cc2)c2ccccc12    not satisfied
Cc1ccc2ccccc2c1C[n+]1ccccc1    satisfied

input: Is growth at least 90%? Consider CN(C)c1oc(C2OC2c2ccccc2)nc1C#N (stereo not given)
output: satisfied

input: Is growth at least 90%? Consider COc1ccc(-c2cc(-c3ccccc3)nc(SCCCC(=O)NO)n2)cc1OC
output: not satisfied

input: Is growth at least 90%? Consider O=c1[nH]c2ccc(Br)cc2c2c1C(c1ccc(Cl)cc1)c1c(ncn3nc(-c4ccco4)nc13)O2 (stereo not given)
output: not satisfied

input: Is growth at least 90%? Consider CCN(CC)CCC(CNc1c2ccc(Cl)cc2nc2ccc(OC)cc12)c1ccccc1 (stereo not given)
output: not satisfied

input: Is growth at least 90%? Consider Cc1ccc(-c2cc3nc(C(Cl)Cl)nc(-c4cccnc4)n3n2)cc1
output: not satisfied

input: Is growth at least 90%? Consider COc1cc(/C=N\NC(=O)CN2CCN(c3cc4c(cc3F)c(=O)c(C(=O)N/N=C/c3cc(OC)c(OC)c(OC)c3)cn4C3CC3)CC2)cc(OC)c1OC
output: not satisfied

* * *

Test system: NCI/ADR-RES ovarian
Test: NCI-60 one-dose screen, 48 h (100 = growth as untreated, 0 = no growth, -100 = all killed)
Details: 10 µM unless noted
Protocol: Growth inhibition of the NCI/ADR-RES human […] tumor cell line is measured as a screen for anti-cancer activity. Cells are grown in 96 well plates and exposed to the test compound for 48 hours. Compounds are tested at a single concentration, which is 10^-5 M for most compounds. The reported endpoint is percent growth (GI% or GIPRCNT), where numbers from 0 - 100% represent growth inhibition, and numbers from -100% - 0 represent cell death. For example, a value of 40 represents 60% growth inhibition. […]
The panel holds about 83,000 compounds, 20% with a hit somewhere; the sample as a whole holds those more often.
// growth lookup, one value per entry
Kindly answer with a numeric value in %, unit omitted.

CC(=O)Nc1nc(N)nc(NC(C)=O)c1N=O    97.2
CC(=O)Nc1ccc(S(=O)(=O)n2ccc(-c3ccc4c(c3)CCC(C)(C)O4)n2)cc1    56.9
CCCCCCCCCCCCCCCCCCNC(=O)[C@H]1CSC(c2ccc(OC)cc2O)N1 (stereo partly specified)    70.8
Cn1cc(-c2cnc3ccc(NC(=O)Nc4ccc(F)c(Br)c4)cc3n2)cn1    12.4
c1ccc(-c2cn(-c3ccccc3)c(-c3ccccc3)n2)cc1    92.4

input: What measured growth goes with Cc1ccc(C(=O)NCCCNc2nccc(-n3ccc4cccnc43)n2)cc1 ?
output: 92.3

* * *

Test system: HOP-62 NSCLC
Test: NCI-60 one-dose screen, 48 h
Conditions: 10 µM unless noted
Procedure: Growth inhibition of the HOP-62 human Non-Small Cell Lung tumor cell line is measured as a screen for anti-cancer activity. Cells are grown in 96 well plates and exposed to the test compound for 48 hours. Compounds are tested at a single concentration, which is 10^-5 M for most compounds. The reported endpoint is percent growth (GI% or GIPRCNT), where numbers from 0 - 100% represent growth inhibition, and numbers from -100% - 0 represent cell death. […]
The panel holds about 83,000 compounds, 20% with a hit somewhere; the sample as a whole holds those more often. The source made the active and inactive calls. Rule for the calls: active = growth percent below 10; inactive = the rest.
Your response should consist of one outcome taken from active, inactive

The following molecules have reported results that may help.
CC(=O)c1cc2c(N)c(C(=O)Nc3cccc4c3OCCO4)sc2nc1C    inactive
O=C1/C(=C/c2ccccc2)Oc2ccc(O)c(I)c21    inactive
O=C(CSc1nc2ccccc2[nH]1)c1ccc(N2CCOCC2)cc1    inactive

input: GET /call?item= CCOC(=O)/C(C#N)=C1/C(=O)Nc2ccccc21 returns the recorded outcome of this test.
output: inactive

input: GET /call?item= Brc1cccc(-c2cc(-c3ccc4nccnc4c3)[nH]n2)c1 returns the recorded outcome of this test.
output: inactive

input: GET /call?item= NC1=NC(SCc2ccccc2CCl)c2ncn(Cc3ccccc3CCl)c2N1 (configuration not stated) returns the recorded outcome of this test.
output: inactive
